Recorded logD values for a group of compounds are listed next.
Test: Experimental LogD (partition coefficient)
Details: not stated, Partition Coeff LogD
Positions of bridges follow the written chain, without caps; N, C: chain ends. Non-standard residues stand in square brackets, D forms with d. Residues, ends and D or L forms follow the SMILES beside them. Lys(N3) = [N-]=[N+]=NCCCC[C@H](N)C(=O)O; R8 = C=CCCCCCC[C@@](C)(N)C(=O)O; Cba = N[C@@H](CC1CCC1)C(=O)O; S5 = C=CCCC[C@](C)(N)C(=O)O; βAla = NCCC(=O)O
Write the number on its own, no unit after it.

# count of solved cases: 5
{"compound": "CC(=O)N[C@@H](CC(C)C)C(=O)N[C@H](C(=O)N[C@@H](Cc1ccccc1)C(=O)N[C@]1(C)CCCCCCC=CCCC[C@@](C)(C(=O)N[C@@H](CO)C(=O)N[C@@H](C)C(=O)N[C@@H](C)C(N)=O)NC(=O)[C@H](CC2CCC2)NC(=O)[C@H](CC(C)C)NC(=O)[C@H](CCC(N)=O)NC(=O)[C@H](Cc2c[nH]c3ccccc23)NC(=O)[C@H](Cc2ccc(O)cc2)NC(=O)[C@H](CCCNC(=N)N)NC1=O)[C@@H](C)O [MP-193] (Ac-LTF[R8]RYWQL[Cba][S5]SAA-NH2; staple 4-11)", "measurement kind": "logD", "measured value": 3.26}
{"compound": "CC(=O)N[C@@H](CCCNC(=N)N)C(=O)NCCC(=O)N[C@@H](CC(C)C)C(=O)N[C@H](C(=O)N[C@@H](Cc1ccccc1)C(=O)N[C@]1(C)CCCCCCC=CCCC[C@@](C)(C(=O)N[C@@H](CO)C(=O)N[C@@H](C)C(=O)N[C@@H](C)C(N)=O)NC(=O)[C@H](CC2CCC2)NC(=O)[C@H](CCC(N)=O)NC(=O)[C@H](C)NC(=O)[C@H](Cc2c[nH]c3ccccc23)NC(=O)[C@H](Cc2ccc(O)cc2)NC(=O)[C@H](CCC(=O)O)NC1=O)[C@@H](C)O", "measurement kind": "logD", "measured value": 2.66}
{"compound": "CC(=O)N[C@@H](CCCCN=[N+]=[N-])C(=O)NCCC(=O)N[C@@H](CO)C(=O)N[C@H](C(=O)N[C@@H](Cc1ccccc1)C(=O)N[C@]1(C)CCCCCCC=CCCC[C@@](C)(C(=O)N[C@@H](CO)C(=O)N[C@@H](CO)C(=O)N[C@@H](CO)C(N)=O)NC(=O)[C@H](CC2CCC2)NC(=O)[C@H](CCC(N)=O)NC(=O)[C@H](CO)NC(=O)[C@H](Cc2c[nH]c3ccccc23)NC(=O)[C@H](Cc2ccc(O)cc2)NC(=O)[C@H](CO)NC1=O)[C@@H](C)O [MP-667] (Ac-[Lys(N3)][βAla]STF[R8]SYWSQ[Cba][S5]SSS-NH2; staple 6-13)", "measurement kind": "logD", "measured value": 2.5}
{"compound": "CC(=O)N[C@@H](CCCCN=[N+]=[N-])C(=O)NCCC(=O)N[C@@H](CC(C)C)C(=O)N[C@H](C(=O)N[C@@H](Cc1ccccc1)C(=O)N[C@]1(C)CCCCCCC=CCCC[C@@](C)(C(=O)N[C@@H](CO)C(=O)N[C@@H](C)C(=O)N[C@@H](C)C(N)=O)NC(=O)[C@H](CC2CCC2)NC(=O)[C@H](CCC(N)=O)NC(=O)[C@H](C)NC(=O)[C@H](Cc2c[nH]c3ccccc23)NC(=O)[C@H](Cc2ccccc2)NC(=O)[C@H](CCC(=O)O)NC1=O)[C@@H](C)O [MP-028] (Ac-[Lys(N3)][βAla]LTF[R8]EFWAQ[Cba][S5]SAA-NH2; staple 6-13)", "measurement kind": "logD", "measured value": 3.2}
{"compound": "CC(=O)N[C@@H](CCCCN=[N+]=[N-])C(=O)NCCC(=O)NCC(=O)N[C@H](C(=O)N[C@@H](Cc1ccccc1)C(=O)N[C@]1(C)CCCCCCC=CCCC[C@@](C)(C(=O)N[C@@H](CO)C(=O)N[C@@H](C)C(=O)N[C@@H](C)C(N)=O)NC(=O)[C@H](CC2CCC2)NC(=O)[C@H](CCC(N)=O)NC(=O)CNC(=O)[C@H](Cc2c[nH]c3ccccc23)NC(=O)[C@H](Cc2ccc(O)cc2)NC(=O)CNC1=O)[C@@H](C)O [MP-692] (Ac-[Lys(N3)][βAla]GTF[R8]GYWGQ[Cba][S5]SAA-NH2; staple 6-13)", "measurement kind": "logD", "measured value": 2.73}

Which logD value is on record for "CC(=O)N[C@@H](CCCNC(=N)N)C(=O)NCCCCCC(=O)N[C@@H](CC(C)C)C(=O)N[C@H](C(=O)N[C@@H](Cc1ccccc1)C(=O)N[C@]1(C)CCCCCCC=CCCC[C@@](C)(C(=O)N[C@@H](CO)C(=O)N[C@@H](C)C(=O)N[C@@H](C)C(N)=O)NC(=O)[C@H](CC2CCC2)NC(=O)[C@H](CCC(N)=O)NC(=O)[C@H](C)NC(=O)[C@H](Cc2c[nH]c3ccccc23)NC(=O)[C@H](Cc2ccc(O)cc2)NC(=O)[C@H](CCC(=O)O)NC1=O)[C@@H](C)O" ?
2.64

What logD value was documented for this compound, CC(=O)N[C@@H](CCCCN=[N+]=[N-])C(=O)NCCC(=O)N[C@@H](CC(C)C)C(=O)N[C@H](C(=O)N[C@@H](Cc1ccccc1)C(=O)N[C@]1(C)CCCCCCC=CCCC[C@@](C)(C(=O)N[C@@H](CO)C(=O)N[C@@H](C)C(=O)N[C@@H](C)C(N)=O)NC(=O)[C@H](CCC(N)=O)NC(=O)[C@H](Cc2ccc(O)cc2)NC(=O)[C@H](Cc2c[nH]c3ccccc23)NC(=O)[C@H](CC2CCC2)NC(=O)[C@H](CCC(=O)O)NC(=O)[C@H](C)NC1=O)[C@@H](C)O [MP-205] (Ac-[Lys(N3)][βAla]LTF[R8]AE[Cba]WYQ[S5]SAA-NH2; staple 6-13) ?
3.02

Find the recorded logD belonging to "CC(=O)N[C@@H](CC(C)C)C(=O)N[C@H](C(=O)N[C@@H](Cc1ccccc1)C(=O)N[C@]1(C)CCCCCCC=CCCC[C@@](C)(C(=O)N[C@@H](CO)C(=O)N[C@@H](C)C(=O)N[C@@H](C)C(N)=O)NC(=O)[C@H](CC(C)C)NC(=O)[C@H](CCC(N)=O)NC(=O)[C@H](C)NC(=O)[C@H](Cc2c[nH]c3ccccc23)NC(=O)[C@H](Cc2ccc(O)cc2)NC(=O)[C@H](CCC(=O)O)NC1=O)[C@@H](C)O" and report it.
2.87

All values here come from paper PMC10786919.
